From: patent US8163795B2

assay: DHE and HMC pharmacokinetics, oral, mice; assay type: in vivo, female BALB/c mice; details: female, BALB/c, mouse, plasma, po, 50 mg/kg p.o., Time 0.25, read-out: Free plasma concentration
Parameter: concentration at 0.25 hr (nM)
Form entry: value (nM) — number only.

Incoming: Which measured concentration at 0.25 hr value corresponds to COc1ccc(C2c3ccc(O)cc3OCC2c2ccc(O)cc2)cc1 (stereo not shown) ?
Outgoing: 380

###

assay: HMC pharmacokinetics i.v. and i.p., mice; format: in vivo, female BALB/c mice; settings: female, BALB/c, mouse, serum, iv, 50 mg/kg, iv, 1 hr; read-out: Serum HMC
Parameter: concentration at 1 hr (µM)
Numeric answer only, unit µM assumed.

Incoming: Name the recorded concentration at 1 hr for COc1ccc(C2c3ccc(O)cc3OCC2c2ccc(O)cc2)cc1 (stereo not shown) .
Outgoing: 3.98
